Target: DNMT1 (Homo sapiens)
Sequence (P26358 whole entry, looked up): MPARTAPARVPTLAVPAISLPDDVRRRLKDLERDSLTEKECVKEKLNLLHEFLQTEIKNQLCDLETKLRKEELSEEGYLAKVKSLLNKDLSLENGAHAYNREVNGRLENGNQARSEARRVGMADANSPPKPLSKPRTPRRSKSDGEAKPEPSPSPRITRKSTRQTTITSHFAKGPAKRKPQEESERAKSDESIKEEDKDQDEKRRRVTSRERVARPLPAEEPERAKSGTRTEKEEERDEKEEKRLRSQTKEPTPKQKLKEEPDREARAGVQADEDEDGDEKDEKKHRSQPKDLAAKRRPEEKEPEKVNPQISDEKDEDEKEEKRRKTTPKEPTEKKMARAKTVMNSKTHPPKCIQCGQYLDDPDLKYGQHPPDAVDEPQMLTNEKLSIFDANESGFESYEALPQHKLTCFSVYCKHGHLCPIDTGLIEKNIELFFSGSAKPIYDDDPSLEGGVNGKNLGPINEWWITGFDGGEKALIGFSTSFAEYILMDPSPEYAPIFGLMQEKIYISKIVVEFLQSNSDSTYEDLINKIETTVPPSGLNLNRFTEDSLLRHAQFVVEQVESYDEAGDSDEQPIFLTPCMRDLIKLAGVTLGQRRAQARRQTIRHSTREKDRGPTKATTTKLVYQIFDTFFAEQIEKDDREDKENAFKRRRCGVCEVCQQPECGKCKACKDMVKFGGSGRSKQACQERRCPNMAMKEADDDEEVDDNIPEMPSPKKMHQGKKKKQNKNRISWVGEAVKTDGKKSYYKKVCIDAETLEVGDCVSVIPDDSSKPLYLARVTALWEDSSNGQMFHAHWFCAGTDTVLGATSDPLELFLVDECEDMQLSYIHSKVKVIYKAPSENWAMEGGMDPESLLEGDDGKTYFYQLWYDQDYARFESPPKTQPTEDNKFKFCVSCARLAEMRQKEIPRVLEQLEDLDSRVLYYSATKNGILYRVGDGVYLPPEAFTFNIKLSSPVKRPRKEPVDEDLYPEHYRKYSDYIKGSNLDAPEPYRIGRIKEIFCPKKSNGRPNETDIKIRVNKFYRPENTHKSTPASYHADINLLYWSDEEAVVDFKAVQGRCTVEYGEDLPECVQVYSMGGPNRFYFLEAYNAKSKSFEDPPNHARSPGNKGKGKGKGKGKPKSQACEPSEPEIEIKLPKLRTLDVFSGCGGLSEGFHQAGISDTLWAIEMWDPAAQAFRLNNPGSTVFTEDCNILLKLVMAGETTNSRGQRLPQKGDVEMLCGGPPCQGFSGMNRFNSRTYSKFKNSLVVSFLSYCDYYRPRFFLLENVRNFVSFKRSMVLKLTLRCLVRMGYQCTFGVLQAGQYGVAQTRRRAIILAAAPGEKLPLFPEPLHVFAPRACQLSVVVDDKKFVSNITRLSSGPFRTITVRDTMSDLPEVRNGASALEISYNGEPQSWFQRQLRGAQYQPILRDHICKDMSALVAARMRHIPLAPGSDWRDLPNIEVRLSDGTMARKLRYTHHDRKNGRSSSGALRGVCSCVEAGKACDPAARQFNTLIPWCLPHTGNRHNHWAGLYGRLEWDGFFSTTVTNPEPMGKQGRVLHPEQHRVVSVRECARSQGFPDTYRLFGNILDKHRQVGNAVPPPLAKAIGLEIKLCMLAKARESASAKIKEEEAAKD
Assay: DNMT1 biochemical activity, breaklight assay and/or SPA assay
Conditions: binned activity in either the breaklight or the SPA assay; read-out: DNMT1 BioChemical (pIC50 category) (converted)
# IC50 annotations

What does the record list as IC50 for CCc1c(C#N)c(SCc2ccc3[nH]cnc3c2)nc(N2CCCN(C)CC2)c1C#N [Example 390] ? 316 to 1000 nM

What does the record list as IC50 for CCc1c(C#N)c(SC(C(N)=O)c2cccc(P(C)(C)=O)c2)nc(N(C)C)c1C#N (stereo not shown) [Example 419] ? 316 to 1000 nM

What does the record list as IC50 for CCc1c(C#N)c(SC(C(N)=O)c2ccccc2)nc(N2CCC(N3CCC(F)(F)C3)CC2)c1C#N (stereo not shown) [Example 496] ? 316 to 1000 nM

What does the record list as IC50 for CCc1c(C#N)c(SC(C(N)=O)c2ccccc2)nc(N2CCC3(CC2)CNC(=O)O3)c1C#N (stereo not shown) [Example 256] ? 316 to 1000 nM

What does the record list as IC50 for CCc1c(C#N)c(SC(C(N)=O)c2ccccc2)nc(N2CC[C@@H](O)C2)c1C#N (stereo partly shown) [Example 160] ? 1000 to 31600 nM

* * *

Test system: erythroid progenitor cells (EPCs)
Test: Fetal hemoglobin (HbF) ELISA in day 7 erythroid progenitor cells;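 also: for fetal hemoglobin induction normalized to vehicle-treated cells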
Type: cell-based, human
Conditions: Homo sapiens, Erythroid progenitor cell, HbF ELISA, day 7 EPCs, 5 days; read-out: EPC ELISA (pEC50 category) (converted)
# EC50 annotations

Known results for compounds:
compound	tgt	result
CCc1c(C#N)c(SC(C(N)=O)c2ccccc2)nc(N2CCC(C)(NCC(F)F)CC2)c1C#N (stereo not shown)	erythroid progenitor cells (EPCs)	0.316 to 1 µM
CCc1c(C#N)c(SCc2ccc(N(C)S(C)(=O)=O)cc2)nc(N2CCC(NCCOC)CC2)c1C#N	erythroid progenitor cells (EPCs)	< 0.316 µM
CCc1c(C#N)c(SCc2ccc(N)cc2)nc(N2CCCN(C)CC2)c1C#N	erythroid progenitor cells (EPCs)	> 31.6 µM
CCc1c(C#N)c(SCc2ccc(C(=O)NCCO)cc2)nc(N(C)C)c1C#N	erythroid progenitor cells (EPCs)	1 to 31.6 µM
CCc1c(C#N)c(SCc2ccc(CNC(=O)CNC)cc2)nc(N2CCCN(C)CC2)c1C#N	erythroid progenitor cells (EPCs)	> 31.6 µM

What does the record list as EC50 for CCc1c(C#N)c(SC(C(N)=O)c2cccnc2)nc(N2CC[C@H](O)C2)c1C#N (stereo partly shown) ? 1 to 31.6 µM

What does the record list as EC50 for CCc1c(C#N)c(SCc2ccc(N(C)S(C)(=O)=O)cc2)nc(N2CCC(NC3CC3)CC2)c1C#N ? < 0.316 µM

What does the record list as EC50 for CCc1c(C#N)c(SC(C(N)=O)c2ccccc2)nc(N2CCN(CCO)CC2)c1C#N (stereo not shown) ? 1 to 31.6 µM

What does the record list as EC50 for CCCN1CCCN(c2nc(SC(C(N)=O)c3ccccc3)c(C#N)c(CC)c2C#N)CC1 (stereo not shown) ? < 0.316 µM

What does the record list as EC50 for CCc1c(C#N)c(SC(C(N)=O)c2ccccc2)nc(N2CCS(=O)(=O)CC2)c1C#N (stereo not shown) ? < 0.316 µM

What does the record list as EC50 for CCc1c(C#N)c(SC(C(N)=O)c2ccccc2)nc(N(C)CC(=O)NC[C@@H](O)CO)c1C#N (stereo partly shown) ? 1 to 31.6 µM

What does the record list as EC50 for CCc1c(C#N)c(SC(C(N)=O)c2ccccc2)nc(N2CCC(=O)CC2)c1C#N (stereo not shown) ? 0.316 to 1 µM

What does the record list as EC50 for CCc1c(C#N)c(SC(C(N)=O)c2ccccc2)nc(N(C)CC(=O)N2CCO[C@H](CO)C2)c1C#N (stereo partly shown) ? < 0.316 µM

What does the record list as EC50 for CCc1c(C#N)c(SC(C(N)=O)c2ccccc2)nc(N2CCCN(CCO)CC2)c1C#N (stereo not shown) ? < 0.316 µM

What does the record list as EC50 for CCc1c(C#N)c(SC(C(N)=O)c2ccccc2)nc(N2CCC(OC(=O)[C@@H](N)C(C)C)CC2)c1C#N (stereo partly shown) ? < 0.316 µM

What does the record list as EC50 for CCc1c(C#N)c(SC(C(N)=O)c2ccccc2)nc(N2CC[C@H](O)C2)c1C#N (stereo partly shown) ? 0.316 to 1 µM

* * *

Target: DNMT1 (Homo sapiens)
Test: DNMT1 biochemical activity, breaklight assay and/or SPA assay
Conditions: binned activity in either the breaklight or the SPA assay; read-out: DNMT1 BioChemical (pIC50 category) (converted)
Structures can show the parent of a compound that is named as a salt.
experimental_endpoint: IC50

Known results for molecules:
molecule	IC50
CCc1c(C)c(N2CCC(N)CC2)nc(SC(C(N)=O)c2ccccc2)c1C#N (stereo not shown)	316 to 1000 nM
CCc1c(C#N)c(SC(C(N)=O)c2ccccc2)nc(N2CCN(CCO)CC2)c1C#N (stereo not shown)	316 to 1000 nM
CCc1c(C#N)c(N[C@@H](C(N)=O)c2ccccc2)nc(N2CCCN(CCCN3CCCC3)CC2)c1C#N	1000 to 31600 nM
CCc1c(C#N)c(SC(C(N)=O)c2cc(F)ncc2F)nc(N2CCCN(C)CC2)c1C#N (stereo not shown)	1000 to 31600 nM
CCc1c(C#N)c(SC(CC)c2ccc(CNC(C)=O)cc2)nc(N2CCC(N(C)C)CC2)c1C#N (stereo not shown) [Example 332, Trifluoroacetic Acid Salt]	1000 to 31600 nM

What does the record list as IC50 for N#Cc1c(SC(C(N)=O)c2ccccc2)nc(N2CCOCC2)c(C#N)c1C1CC1 (stereo not shown) ? 316 to 1000 nM

What does the record list as IC50 for CCc1c(C#N)c(SCc2ccc(NC(=O)CN)cc2)nc(N2CCCN(C)CC2)c1C#N ? 316 to 1000 nM

What does the record list as IC50 for CSc1c(C#N)c(SC(C(N)=O)c2ccccc2)nc(N2CCCN(C)CC2)c1C#N (stereo not shown) ? 316 to 1000 nM

* * *

Tested on: erythroid progenitor cells (EPCs)
Assay: Fetal hemoglobin (HbF) ELISA in day 7 erythroid progenitor cells;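 also: for fetal hemoglobin induction normalized to vehicle-treated cells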
Format: cell-based, human
Details: Homo sapiens, Erythroid progenitor cell, HbF ELISA, day 7 EPCs, 5 days; read-out: EPC ELISA (pEC50 category) (converted)
Counter-ions that a name gives are not always drawn.
experimental_endpoint: EC50

What does the record list as EC50 for CN1CCN(CC2CCN(c3nc(SC(C(N)=O)c4ccccc4)c(C#N)c(C4CC4)c3C#N)CC2)CC1 (stereo not shown) [Example 125, trifluoroacetate] ? < 316 nM

What does the record list as EC50 for CCc1c(C#N)c(SC(C(N)=O)c2c(F)cccc2F)nc(N2CC[C@H](O)C2)c1C#N (stereo partly shown) [Example 428] ? 316 to 1000 nM

What does the record list as EC50 for CCc1c(C#N)c(SCc2ccc(N3CCCCS3(=O)=O)cc2)nc(N2CCC(N)CC2)c1C#N [Example 601] ? > 31600 nM

What does the record list as EC50 for CCc1c(C#N)c(SC(C(N)=O)c2ccccc2)nc(N2CCC(NC(C)(C)C(=O)OC)CC2)c1C#N (stereo not shown) [Example 487] ? < 316 nM

* * *

Tested on: erythroid progenitor cells (EPCs)
Experiment: Fetal hemoglobin (HbF) ELISA in day 7 erythroid progenitor cells;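 also: for fetal hemoglobin induction normalized to vehicle-treated cells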
Assay type: cell-based, human
Details: Homo sapiens, Erythroid progenitor cell, HbF ELISA, day 7 EPCs, 5 days; read-out: EPC ELISA (pEC50 category) (converted)
Counter-ions that a name gives are not always drawn.
# EC50 annotations

compound	result
CCc1c(C#N)c(S[C@H](C(N)=O)c2ccc(F)cc2)nc(N2CCC(N(C)C)CC2)c1C#N (single isomer, unassigned) [Example 465, Formic acid salt]	< 316 nM
CC(Sc1nc(N2CCCNCC2)c(C#N)c(C2CC2)c1C#N)C(N)=O (stereo not shown) [Example 46]	> 31600 nM
CCc1c(C#N)c(SC(C(N)=O)c2ccc(F)cc2)nc(N2CCC(N)CC2)c1C#N (stereo not shown) [Example 522, hydrochloride]	< 316 nM
CCc1c(C#N)c(SC(C(N)=O)c2ccccc2)nc(N2CCC[C@H](NC3CC3)C2)c1C#N (stereo partly shown) [Example 684]	< 316 nM
CCc1c(C#N)c(SC(C(N)=O)c2ccccc2)nc(N2CC[C@H](NCC(C)(C)O)C2)c1C#N (stereo partly shown) [Example 541]	< 316 nM
CCc1c(C#N)c(SC(C(N)=O)c2ccccc2)nc(N2CCC(N3[C@H](C)CC[C@@H]3C)CC2)c1C#N (stereo partly shown) [Example 452]	< 316 nM

Field: EC50 (erythroid progenitor cells (EPCs)). Entry: N#Cc1c(N2CCCNCC2)nc(SC(C(N)=O)c2ccccc2)c2c1CCC2 (stereo not shown) [Example 171] > 31600 nM
